B1: HDV Ribozyme (parent)
chain: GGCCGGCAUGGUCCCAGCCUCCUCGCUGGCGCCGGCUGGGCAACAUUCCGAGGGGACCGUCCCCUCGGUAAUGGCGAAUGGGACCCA

Variants of: B1
Assay: self-cleavage, relative activity (ratio to wild type); higher = more cleavage; co-transcriptional
Categorize each record by its self-cleavage using label 0: < 0.2; label 1: ≥ 0.2 and < 0.6; label 2: ≥ 0.6

>>> df
    mutation_list    group
 0      C19G G76A  label 0
 1      C26U G59A  label 2
 2      C61G A78G  label 2
 3      G81A C86A  label 2
 4      G28A G67A  label 0
 5      G11A C63A  label 1
 6       G6C A42U  label 0
 7      C62G U65A  label 0
 8      G74U G76C  label 2
 9      A43G G52C  label 2
10       G1U G76A  label 2
11      C15U A77U  label 1
12       A8G G17U  label 1
13      G29C U69G  label 0
14      G55U U72C  label 2
15       A8G G82C  label 0
16      G34U U37C  label 0
17      C48A A71C  label 2
18      C22A C32A  label 0
19       C4A C61U  label 1
20      G35A G59U  label 2
